- Test system: U2OS
- method description: Multiplex assay against U2OS
- Type: toxicity, cell-based
- measurement context: human, 48 h, 1 µM, compound concentration 1 uM, replicate 2
Documented Population Fragmented Nuclei (%) across a set of compounds
observed property: Population Fragmented Nuclei (%)

compound=CN(C)C(=O)Cn1cc(-c2ccc(-c3nnc4ccccn34)cc2)cn1 observed_property="Population Fragmented Nuclei (%)" unit_tag=% reported_value=11
compound=CCCCC[C@H](O)/C=C/[C@H]1[C@H](O)CC(=O)[C@@H]1CCCCCCC(=O)O observed_property="Population Fragmented Nuclei (%)" unit_tag=% reported_value=18
compound=CN1CCN(c2ccc(Nc3c4ccccc4nc4ccccc34)cc2)CC1.Cl.Cl.O observed_property="Population Fragmented Nuclei (%)" unit_tag=% reported_value=40
compound=Cc1c(Cc2ccc3ccccc3n2)c2cc(F)ccc2n1CC(=O)O observed_property="Population Fragmented Nuclei (%)" unit_tag=% reported_value=22
compound=S=C(NCCCc1c[nH]cn1)NCCCN(Cc1ccc(Cl)c(Cl)c1)c1ccc(Br)cn1 observed_property="Population Fragmented Nuclei (%)" unit_tag=% reported_value=28
compound=Nc1nc(CC(=O)Nc2ccc(CCNC[C@H](O)c3ccccc3)cc2)cs1 observed_property="Population Fragmented Nuclei (%)" unit_tag=% reported_value=12
compound=C[C@H](NC(=O)CNC(=O)c1cccc(Cl)c1)c1ccccc1 observed_property="Population Fragmented Nuclei (%)" unit_tag=% reported_value=17
compound=CSc1nc(NC2CCCC2)c([N+](=O)[O-])c(NC2CCCC2)n1 observed_property="Population Fragmented Nuclei (%)" unit_tag=% reported_value=21
compound="O=C(O)CCC/C=C\\CC1C(O)CC(O)C1/C=C/C(O)COc1cccc(Cl)c1 (centres undefined)" observed_property="Population Fragmented Nuclei (%)" unit_tag=% reported_value=11

====

- Test system: Fibroblast
- method description: Multiplex assay against human fibroblast
- Format: toxicity, cell-based
- measurement context: 24 h, 1 µM, compound concentration 1 uM, replicate 2
observed property: Population Pyknosed Nuclei (%)

compound=Cn1cc(C(=O)OCC2CCN(CCNS(C)(=O)=O)CC2)c2ccccc21 measured_target=Fibroblast observed_property="Population Pyknosed Nuclei (%)" reported_value=26
compound=CC(F)(F)CN1CCOc2c(nn(-c3ccccc3Cl)c2-c2ccc(Cl)cc2)C1=O measured_target=Fibroblast observed_property="Population Pyknosed Nuclei (%)" reported_value=20
compound="COCCCN1CCC(NC(=O)c2cc(Cl)c(N)c3c2OCC3)CC1 [PRUCALOPRIDE]" measured_target=Fibroblast observed_property="Population Pyknosed Nuclei (%)" reported_value=14
compound="CC(C)C[C@H](CO)Nc1nc(S[C@@H](C)c2ccccc2)nc2nc(N)sc12 [AZD-8797]" measured_target=Fibroblast observed_property="Population Pyknosed Nuclei (%)" reported_value=15
compound=OCCCNc1cc(-c2ccnc(Nc3cccc(Cl)c3)n2)ccn1 measured_target=Fibroblast observed_property="Population Pyknosed Nuclei (%)" reported_value=22
compound=C[C@@H]1CC(=O)Nc2cccc(-c3ccc4c(c3)c(-c3cnn(C)c3)nn4C)c2N1 measured_target=Fibroblast observed_property="Population Pyknosed Nuclei (%)" reported_value=19
compound=O=C(Nc1cc(-c2ccccc2)nn1-c1ccccc1F)c1ccc([N+](=O)[O-])cc1 measured_target=Fibroblast observed_property="Population Pyknosed Nuclei (%)" reported_value=20
compound="Cl.Cl.OCCOCCN1CCN(C(c2ccccc2)c2ccc(Cl)cc2)CC1 (centres undefined) [HYDROXYZINE HYDROCHLORIDE]" measured_target=Fibroblast observed_property="Population Pyknosed Nuclei (%)" reported_value=18
compound="O=c1ccc2ccc(OCCCCN3CCN(c4cccc5sccc45)CC3)cc2[nH]1 [BREXPIPRAZOLE]" measured_target=Fibroblast observed_property="Population Pyknosed Nuclei (%)" reported_value=14

====

- System: HEK-293T
- method description: Multiplex assay against HEK293T
- Type: toxicity, cell-based
- measurement context: human, 24 h, 10 µM, compound concentration 10 uM, replicate 1
observed property: Population Healthy Nuclei (%)

molecule=CCCCCCNC(=O)Nc1ccc(S(=O)(=O)Nc2ccc(CCNC[C@H](O)COc3ccc(O)cc3)cc2)cc1 observed_property="Population Healthy Nuclei (%)" reported_value=80
molecule="Cc1ccc(OCC(O)C(C)NC(C)C)c2c1CCC2.Cl (stereo not given)" observed_property="Population Healthy Nuclei (%)" reported_value=71
molecule=O=c1ccc2ccc(OCCCCN3CCN(c4cccc5sccc45)CC3)cc2[nH]1 observed_property="Population Healthy Nuclei (%)" reported_value=37
molecule=CC(C)(O)C(=O)N1CCN(c2ccc(C(F)(F)F)c(C3=C(c4c[nH]c5ccccc45)C(=O)NC3=O)c2)CC1 observed_property="Population Healthy Nuclei (%)" reported_value=71
molecule=Cc1cc(NC(=O)NCCN2CCC(O)(Cc3ccccc3)CC2)c2ccccc2n1 observed_property="Population Healthy Nuclei (%)" reported_value=79

====

- Test system: U2OS
- method description: Multiplex assay against U2OS
- Assay type: toxicity, cell-based
- measurement context: human, 24 h, 1 µM, compound concentration 1 uM, replicate 1
Population Mitochondria Different-Phenotype (%) values by entry
observed property: Population Mitochondria Different-Phenotype (%)

compound=CCc1nn2c(C)cc(C)nc2c1Cc1ccc(-c2nnc(C3CCNCC3)o2)cc1 reported_value=6
compound=N[C@](CC1c2ccccc2Oc2ccccc21)(C(=O)O)[C@H]1C[C@@H]1C(=O)O reported_value=1
compound=Cc1c(Cc2ccc3ccccc3n2)c2cc(F)ccc2n1CC(=O)O reported_value=3
compound=COc1c(Nc2ccc(S(C)(=O)=O)nc2C)ncnc1OC1CCN(C(=O)OC(C)C)CC1 reported_value=3
compound=Cc1cc(=O)n(C)c2cc(N3C(=O)CC[C@H](NS(=O)(=O)CC(C)C)[C@H]3c3ccc(Cl)cc3)ccc12 reported_value=3
compound=Cc1sc2c(c1C)C(c1ccc(Cl)cc1)=N[C@H](CC(=O)OC(C)(C)C)c1nnc(C)n1-2 reported_value=1
compound="CN(C)C/C=C/C(=O)Nc1ccc(C(=O)N2CCCC(Nc3ncc(Cl)c(-c4c[nH]c5ccccc45)n3)C2)cc1 (centres undefined)" reported_value=2
compound=O=c1nc2[nH]c3ccccc3nc-2c(=O)[nH]1 reported_value=1
compound=OCCCNc1cc(-c2ccnc(Nc3cccc(Cl)c3)n2)ccn1 reported_value=10

====

- Test system: HEK-293T
- method description: Multiplex assay against HEK293T
- Format: toxicity, cell-based
- measurement context: human, 48 h, 1 µM, compound concentration 1 uM, replicate 2
Non-standard residues stand in square brackets, D forms with d. Residues, ends and D or L forms follow the SMILES beside them.
One threshold, 700, splits the recorded Total Cell Count values: lower ones are 1, equal or higher ones are -1.

compound=CC(F)(F)CN1CCOc2c(nn(-c3ccccc3Cl)c2-c2ccc(Cl)cc2)C1=O assigned_label=-1
compound="COc1ccc2[nH]c(I)c(CCNC(C)=O)c2c1 [IODOMELATONIN]" assigned_label=1
compound=C[C@@H]1CC(=O)Nc2cccc(-c3ccc4c(c3)c(-c3cnn(C)c3)nn4C)c2N1 assigned_label=1
compound="CN1CCN2c3ccccc3Cc3ccccc3C2C1.Cl (stereo not drawn) [MIANSERIN HYDROCHLORIDE]" assigned_label=-1
compound="CC(C)C[C@@H]1NC(=O)[C@@H](C(C)C)NC(=O)[C@@H]2CCCN2C(=O)[C@@H](CC(=O)O)NC(=O)[C@@H](Cc2c[nH]c3ccccc23)NC1=O [BQ-123] (cyclo(L[dW][dD]P[dV]))" assigned_label=-1
compound="Cc1c(Cc2ccc3ccccc3n2)c2cc(F)ccc2n1CC(=O)O [TIMAPIPRANT]" assigned_label=1
compound="O=c1ccc2ccc(OCCCCN3CCN(c4cccc5sccc45)CC3)cc2[nH]1 [BREXPIPRAZOLE]" assigned_label=1

====

- System: Fibroblast
- method description: Multiplex assay against human fibroblast
- Assay type: toxicity, cell-based
- measurement context: 48 h, 10 µM, compound concentration 10 uM, replicate 1
observed property: Population Apoptotic (%)

compound=Cn1cc(C(=O)OCC2CCN(CCNS(C)(=O)=O)CC2)c2ccccc21 measured_target=Fibroblast reported_value=68
compound=S=C(NCCCc1c[nH]cn1)NCCCN(Cc1ccc(Cl)c(Cl)c1)c1ccc(Br)cn1 measured_target=Fibroblast reported_value=62
compound=COc1ccc2c(c1OCc1ccccc1)C[C@@H](C(=O)O)N(C(=O)C(c1ccccc1)c1ccccc1)C2 measured_target=Fibroblast reported_value=57
compound="CN1CCN2c3ccccc3Cc3ccccc3C2C1.Cl (centres undefined) [MIANSERIN HYDROCHLORIDE]" measured_target=Fibroblast reported_value=57
compound=O=C(Nc1cc(-c2ccccc2)nn1-c1ccccc1F)c1ccc([N+](=O)[O-])cc1 measured_target=Fibroblast reported_value=66
compound=CC(C)(C)c1ccc(CSc2cnn(C(C)(C)C)c(=O)c2Cl)cc1 measured_target=Fibroblast reported_value=72
compound=COc1cc(C(=O)N2CC[C@@H](O)[C@@H](N)C2)cc2nc(-c3cc4ccccc4n3CC3CC3)n(C)c12.Cl measured_target=Fibroblast reported_value=86
compound=COc1c(Nc2ccc(S(C)(=O)=O)nc2C)ncnc1OC1CCN(C(=O)OC(C)C)CC1 measured_target=Fibroblast reported_value=73
compound="Cc1ccc(OCC(O)C(C)NC(C)C)c2c1CCC2.Cl (centres undefined)" measured_target=Fibroblast reported_value=71

Just for reference, ChEMBL document CHEMBL5058577 is where these values come from.
